Measured composite z-score values are reported for all entries that follow.
System: Noggin (protein binding on small-molecule microarray)
Experiment: small molecules binding Noggin protein – biochemical, 635/667 nm fluorescence, primary screen (AID 1095);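 also: score merges 667 nm feature fluorescence with signal to noise over triplicate slides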
Details: 635 nm fluorescence, higher = more signal

Guide cases for composite z-score, answers given:
molecule: COCCCNC(=O)[C@@]1(CCS(=O)(=O)c2ccccc2)N=C(c2ccc(OCCCO)cc2)O[C@H]1c1ccccc1N=[N+]=[N-]
result: 0.908
--
molecule: COc1ccc([C@H]2C[C@H]3C(I)=C[C@@H]2C(=O)[C@]32CO2)cc1
result: 0.387
--
molecule: CCN(CC)c1ccc(N2CC=CC34O[C@@H]5/C=C\CCC(C)OC(=O)C5[C@H]3C(=O)N(CCCCCO)[C@@H]4C2=O)cc1 (stereo partly specified)
result: -0.663
--
molecule: CS(=O)(=O)CCOC(=O)C1=CC(CCCO)=CC(c2ccc(CN3CCCC3)cc2)N(Cc2cccc(OC(F)(F)F)c2)C=C1C(=O)OCCS(C)(=O)=O (stereo unspecified)
result: 0.738
--
molecule: C=CCN1Cc2ccccc2[C@@H]2OC(c3ccc(OCCCO)cc3)=N[C@]2(CCS(=O)(=O)c2ccccc2)C1=O
result: 0.704

Consider now this further molecule.
Ask: Given CCCCC(=C=CC[C@@H](O)c1ccc(CO)o1)CCO , respond with its composite z-score.
Result: 0.436
